ASSAY_INFO: activity coefficient (dimensionless); of the first substance listed, at infinite dilution; xn = mol fraction of the nth substance listed
MEASUREMENT_CONTEXT: 378.15 K; 101.33 kPa; Liquid; Chromatography; x1 = 0
ENDPOINT: activity coefficient
Give bare numbers.

Worked cases, activity coefficient given:
In plain terms, CC(C)CO [2-methyl-1-propanol] + CCCC[P+](CCCC)(CCCC)CCCC.O=S(=O)([N-]S(=O)(=O)C(F)(F)F)C(F)(F)F has a documented activity coefficient of 1.46

response.value for C=CCCC [1-pentene] + CCCC[P+](CCCC)(CCCC)CCCC.O=S(=O)([N-]S(=O)(=O)C(F)(F)F)C(F)(F)F (field: activity coefficient) = 2.7

Item: CO [methanol] + CCCC[P+](CCCC)(CCCC)CCCC.O=S(=O)([N-]S(=O)(=O)C(F)(F)F)C(F)(F)F | activity coefficient: 1.18

Provide activity coefficient for all items below, preserving their order.
1. CC(C)=O [acetone] + CCCC[P+](CCCC)(CCCC)CCCC.O=S(=O)([N-]S(=O)(=O)C(F)(F)F)C(F)(F)F
2. CCCC=O [butanal] + CCCC[P+](CCCC)(CCCC)CCCC.O=S(=O)([N-]S(=O)(=O)C(F)(F)F)C(F)(F)F
3. CCCCC [pentane] + CCCC[P+](CCCC)(CCCC)CCCC.O=S(=O)([N-]S(=O)(=O)C(F)(F)F)C(F)(F)F
4. CCOCC [diethyl ether] + CCCC[P+](CCCC)(CCCC)CCCC.O=S(=O)([N-]S(=O)(=O)C(F)(F)F)C(F)(F)F
5. CC(C)CC(C)(C)C [2,2,4-trimethylpentane] + CCCC[P+](CCCC)(CCCC)CCCC.O=S(=O)([N-]S(=O)(=O)C(F)(F)F)C(F)(F)F
6. CCCC(=O)OC [methyl butanoate] + CCCC[P+](CCCC)(CCCC)CCCC.O=S(=O)([N-]S(=O)(=O)C(F)(F)F)C(F)(F)F
7. C1CCCCCC1 [cycloheptane] + CCCC[P+](CCCC)(CCCC)CCCC.O=S(=O)([N-]S(=O)(=O)C(F)(F)F)C(F)(F)F

[0.545, 0.729, 3.65, 1.76, 5.41, 1.03, 3.4]

Look up activity coefficient for the entries below, preserving their order.
1. CC(C)OC(C)C [diisopropyl ether] + CCCC[P+](CCCC)(CCCC)CCCC.O=S(=O)([N-]S(=O)(=O)C(F)(F)F)C(F)(F)F
2. C1CCOC1 [tetrahydrofuran] + CCCC[P+](CCCC)(CCCC)CCCC.O=S(=O)([N-]S(=O)(=O)C(F)(F)F)C(F)(F)F
3. C=C(C)c1ccccc1 [(1-methylethenyl)benzene] + CCCC[P+](CCCC)(CCCC)CCCC.O=S(=O)([N-]S(=O)(=O)C(F)(F)F)C(F)(F)F

[3, 0.682, 1.52]

For each of the items listed, what is its activity coefficient?
1. Cc1ccc(C)cc1 [1,4-dimethylbenzene] + CCCC[P+](CCCC)(CCCC)CCCC.O=S(=O)([N-]S(=O)(=O)C(F)(F)F)C(F)(F)F
2. C1CCCCCCC1 [cyclooctane] + CCCC[P+](CCCC)(CCCC)CCCC.O=S(=O)([N-]S(=O)(=O)C(F)(F)F)C(F)(F)F

1. 1.64
2. 4

These measurements were taken from the NIST ThermoML archive (doi:10.1016/j.fluid.2018.07.028).
